Outcome Measure: melting point

Solved cases below.
Clc1cc2c3c(c1)C(c1ccccc1)Nc1ccccc1N3CC2 (centres undefined); 192 to 194 °C
CCC(=O)C1=C(O)CC(c2ccc3c(c2)CCCC3)CC1=O (centres undefined); 87 °C
Cn1cc(-c2ccc(Cl)c(C(F)(F)F)c2)c(=O)c(C(F)(F)F)c1; 164 to 165 °C
COCCOc1cc(NS(=O)(=O)c2ccccn2)c2[nH]c(C3=NCC(CN4CCS(=O)CC4)S3)cc2c1 (centres undefined); 235 to 236 °C
O=c1ccn(-c2cccc(OC(F)F)c2)nc1-c1ccnn1-c1ccccc1; 159 to 160 °C
Nc1cnc(-c2ccc(F)cc2)n(CC(=O)NC(Cc2ccccc2)C(=O)c2nc3ccccc3o2)c1=O (centres undefined); 233 to 236 °C

# input Given the entry `CNc1c(F)cc2c(=O)c(C(=O)O)cn(-c3cc(N)c(F)cc3Br)c2c1Cl` , report its measured melting point.
# output > 280 °C

# input // same read-out, input: `O=C(Nc1cc(C(F)(F)F)cc(C(F)(F)F)c1)c1ccccc1SSc1ccccc1C(=O)Nc1cc(C(F)(F)F)cc(C(F)(F)F)c1`
# output 213 to 214 °C

# input Same for `COC(=O)/C(=C/C=C/c1ccc2ccccc2n1)OC`
# output 88 °C

# input // query: `COc1ccc2c(Cc3c(Cl)cncc3Cl)nncc2c1C#CCCCc1ccccc1`
# output 130 to 132 °C

# input Please do the same for `Cc1ccc(Oc2ccc(Cl)cn2)c(Oc2ccc(Cl)cn2)c1` as well.
# output 87 to 90 °C

* * *

Outcome Measure: melting point

Some entries whose results are on file:
BrCc1nc2cc3ccccc3cc2nc1CBr; 190 to 191 °C
Cc1ccc(NC(=O)c2ccc(CN3CCN(CCO)CC3)c(C(F)(F)F)c2)cc1Nc1nccc(-c2cncnc2)n1; 188 to 192 °C
O=C1N(Cc2ccccn2)c2cccc(-c3ccoc3)c2C12COc1cc3c(cc12)CCO3 (stereo not given); 195 to 197 °C
O=C(COc1cc(-c2cccc(Cl)c2)nc2ccccc12)N1CCOCC1; 131 °C

# input # get_value(readout='melting point', item= `Nc1ncc(CCN2CCN(c3ccccc3)CC2)s1` )
# output 185 to 189 °C

# input // same read-out, input: `O=C(CSc1ncccn1)C12CC3CC(CC(C3)C1)C2`
# output 100 to 101 °C

# input Follow-up item: `COC(=O)c1cccc(-c2nc(-c3ccc(F)cc3F)cs2)c1`
# output 121 to 122 °C

# input Could you do the same for `Cc1nnc2n1-c1ccc(Cl)cc1N(c1ccccc1)C(=O)C2` , please?
# output 297 to 298 °C

# input # repeat for `c1ccc(Cn2ncc3c2-c2ccccc2C3(Cc2ccncc2)Cc2ccncc2)cc1`
# output 154 to 155 °C

# input // query: `COc1cc(CCCn2cncn2)ccc1O`
# output 97 to 98 °C

* * *

Outcome Measure: melting point

O=c1oc(-c2ccccc2)cc(O)c1Sc1c(O)cc(-c2ccccc2)oc1=O; > 240 °C
COc1c(Cl)cc(-c2ccc(=O)[nH]n2)cc1Cl; 245 to 251 °C
CC(C)(C)OC(=O)C[C@H](NC(=O)CNC(=O)CCc1ccc(C(=N)N)cc1)C(=O)NC1(C(=O)O)CCCC1; 136 to 138 °C
COc1cc(C(=O)N2CCC(CCN3CCC(C(=O)c4nc5ccccc5[nH]4)CC3)(c3ccccc3)C2)cc(OC)c1OC (stereo not given); 108 to 111 °C

# input What does the record list as melting point for `O=C(OCCOCc1ccccc1)n1c(-c2cscn2)nc2ccccc21` ?
# output 93 to 95 °C

# input Same read-out for `C[C@H](CO)Cn1c2ccccc2c2ccccc21` ?
# output 80 to 81 °C

# input // next record `O=C(O)C1(CCCCCCCCCCCCC2(C(=O)NCCO)CC2)CC1`
# output 81.1 to 83.8 °C

# input Can you handle `Cc1nc(-c2ccccc2)cc(=O)[nH]1` next?
# output 238 to 240 °C

# input Would you kindly repeat that for `O=c1[nH]c2ccc3cccnc3c2o1` ?
# output > 300 °C

# input Then this compound: `COc1cccc(CC(=O)O)c1OCCCc1cn(-c2nnc(C(F)(F)F)s2)nc1C(C)C`
# output 114 to 115 °C
